- tested_on: EHMT1 (Homo sapiens)
- Sequence (Q9H9B1 whole entry): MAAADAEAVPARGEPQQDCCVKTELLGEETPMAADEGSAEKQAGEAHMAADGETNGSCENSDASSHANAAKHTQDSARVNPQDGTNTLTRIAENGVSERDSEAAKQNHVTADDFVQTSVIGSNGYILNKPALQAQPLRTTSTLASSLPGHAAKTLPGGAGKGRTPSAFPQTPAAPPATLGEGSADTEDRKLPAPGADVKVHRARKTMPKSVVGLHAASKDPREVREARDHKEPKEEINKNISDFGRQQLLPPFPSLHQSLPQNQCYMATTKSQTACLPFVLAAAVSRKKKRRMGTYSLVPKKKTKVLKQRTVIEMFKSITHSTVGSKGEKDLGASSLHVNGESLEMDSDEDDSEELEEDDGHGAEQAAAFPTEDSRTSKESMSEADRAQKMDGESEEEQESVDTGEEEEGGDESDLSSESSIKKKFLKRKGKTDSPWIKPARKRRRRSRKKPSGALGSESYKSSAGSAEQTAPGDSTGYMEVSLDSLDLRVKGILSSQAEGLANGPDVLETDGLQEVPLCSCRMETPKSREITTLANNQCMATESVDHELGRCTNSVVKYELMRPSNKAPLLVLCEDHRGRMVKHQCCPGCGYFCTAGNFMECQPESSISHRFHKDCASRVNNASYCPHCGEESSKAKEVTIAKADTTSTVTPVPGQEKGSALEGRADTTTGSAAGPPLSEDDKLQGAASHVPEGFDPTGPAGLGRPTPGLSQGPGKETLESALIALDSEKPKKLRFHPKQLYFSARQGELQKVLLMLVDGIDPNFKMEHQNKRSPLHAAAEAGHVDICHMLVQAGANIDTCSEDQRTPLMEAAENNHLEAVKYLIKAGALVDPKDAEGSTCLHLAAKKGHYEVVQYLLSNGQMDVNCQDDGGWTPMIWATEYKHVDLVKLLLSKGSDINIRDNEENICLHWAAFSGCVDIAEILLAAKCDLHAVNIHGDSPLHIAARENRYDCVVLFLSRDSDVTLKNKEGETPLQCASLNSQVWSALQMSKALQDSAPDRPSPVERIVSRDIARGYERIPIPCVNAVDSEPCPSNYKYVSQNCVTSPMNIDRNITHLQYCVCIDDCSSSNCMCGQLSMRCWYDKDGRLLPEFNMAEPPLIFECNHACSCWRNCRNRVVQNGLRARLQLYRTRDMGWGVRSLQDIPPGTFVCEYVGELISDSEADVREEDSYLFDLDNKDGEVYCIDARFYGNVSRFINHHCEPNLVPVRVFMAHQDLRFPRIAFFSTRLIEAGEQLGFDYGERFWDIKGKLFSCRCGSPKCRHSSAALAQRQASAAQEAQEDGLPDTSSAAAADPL
- assay_explanation: EHMT1 PEP enzyme assay
- Format: biochemical
- experimental_conditions: Table 3; read-out: EHMT1 PEP (IC50 μM)
Here, each record is paired with measured IC50 data.
measurement_kind: IC50

> print(dat)
                               line.notation  measurement.kind      reading
 1  CNc1cc(C)nc(Nc2ccc(Cl)c(C(=O)Nc3cscn3)c2)n1              IC50  0.1 to 1 µM
 2  CNc1cc(C)nc(Nc2ccc(OC)c(CNCCN3CC[C@H](C)C3)c2)n1              IC50  0.1 to 1 µM
 3  CNc1cc(C)nc(Nc2ccc(OC)c(C#CC[N+](C)(C)CCN)c2)n1              IC50      > 10 µM
 4  CNc1cc(C)nc(Nc2ccc(OC)c(CNC[C@H](C)N3CCCC3)c2)n1              IC50      > 10 µM
 5  CNc1cc(C)nc(Nc2ccc(C)c(C(=O)Nc3ncn(C)n3)c2)n1              IC50   1 to 10 µM
 6  CNc1cc(C)nc(Nc2ccc(Cl)c(C(=O)Nc3cocn3)c2)n1              IC50   1 to 10 µM
 7  CNc1cc(C)nc(Nc2ccc(Cl)c(C(=O)Nc3ncco3)c2)n1              IC50   1 to 10 µM
 8  CNc1cc(C)nc(Nc2ccc(OC)c(CN[C@H](C)CN3CCCC3)c2)n1              IC50  0.1 to 1 µM
 9  CNc1cc(C)nc(Nc2ccc(OC)c(OC[C@H](O)CN3CCCCC3)c2)n1              IC50      > 10 µM
10  CNc1cc(C)nc(Nc2ccc(OC)c(CNCCN3CC(C)C3)c2)n1              IC50      > 10 µM
11  CNc1cc(C)nc(Nc2ccc(OC)c(CNC[C@@H](C)N3CCCC3)c2)n1              IC50  0.1 to 1 µM
12  CNc1cc(C)nc(Nc2ccc(OC)c(C#CCNCCN(C)C)c2)n1              IC50  0.1 to 1 µM
13  CNc1cc(C)nc(Nc2ccc(Cl)c(C(=O)NCC3CC3)c2)n1              IC50   1 to 10 µM
14  CNc1cc(C)nc(Nc2ccc(OC)c(CN[C@@H](C)CN3CCCC3)c2)n1              IC50  0.1 to 1 µM
15  CNc1cc(C)nc(Nc2ccc(Cl)c(C(=O)NCCN3CCCC3)c2)n1              IC50     < 0.1 µM
16  CNc1cc(C)nc(Nc2ccc(Cl)c(C(=O)Nc3cccnn3)c2)n1              IC50   1 to 10 µM
17  CNc1cc(C)nc(Nc2ccc(OC)c(OC[C@H](O)CN3CC4(CC4)C3)c2)n1              IC50      > 10 µM
18  CNc1cc(C)nc(Nc2ccc(Cl)c(C(=O)Nc3ccccc3)c2)n1              IC50   1 to 10 µM
